# Test system: OVCAR-3
# EXPERIMENTAL_PROTOCOL: NCI tumour cell line growth inhibition, 48 h
Active and inactive are the calls of the source. No stated cut-off is given here; in the data, active = GI50 up to about 1.1 µM and inactive = higher.
I would appreciate it if you answered using one of these outcomes: class 1 (active), class 0 (inactive)

Here are 8 compounds together with their reported answers.
Exam item: Recorded test call requested for "CCC1=[N+](CC)CCN1CC"
Marked response: class 0

Exam item: Recorded test call requested for CN(C)c1ccc(C2SCC(=O)N2c2ccc(Oc3ccc(Cl)cc3)c(Cl)c2)cc1 (stereo not given)
Marked response: class 0

Exam item: Recorded test call requested for "CC(=O)Oc1ccccc1C(=O)C1c2cccc(O)c2C(=O)c2c(O)cccc21"
Marked response: class 1

Exam item: Recorded test call requested for "O=S(=O)(OI(OI(OS(=O)(=O)C(F)(F)F)c1ccccc1)c1ccccc1)C(F)(F)F"
Marked response: class 0

Exam item: Recorded test call requested for CCOC(=O)C(NC(=O)CC(C)C)(NC(C)C)C(F)(F)F (stereo not given)
Marked response: class 0

Exam item: Recorded test call requested for CCCCC1(C)C=C/C(=C2/C(=O)O/C(=C\C(=O)O)C2=O)O1 (stereo not given)
Marked response: class 0

Exam item: Recorded test call requested for "COC(=O)CCC(=O)CC(=O)C(=O)Nc1c(Cl)cc([N+](=O)[O-])cc1Cl"
Marked response: class 0

Exam item: Recorded test call requested for "S=C(N1CCN(c2ccc(Cl)c(Cl)c2)CC1)N1CCN(c2ccc(Cl)c(Cl)c2)CC1"
Marked response: class 0

Further cases:
Exam item: Recorded test call requested for CCOC(=O)C(=O)C(/C(=N/N(C)C)C(=O)Nc1ccc(C)cc1C)c1nc2ccccc2nc1O (stereo not given)
Marked response: class 0

Exam item: Recorded test call requested for C[N+](C)(C)c1ncnc2c1ncn2C1CCCO1 (stereo not given)
Marked response: class 0

---

# Tested on: MDA-N
# EXPERIMENTAL_PROTOCOL: NCI tumour cell line growth inhibition, 48 h
Active and inactive are the calls of the source. Rule as the data show it: active = GI50 up to about 1.1 µM and inactive = higher. Starred links: 1 amine or outer side, 2 acyl side, 3 side chain; linkers in the order of their positions; H or OH if unused. Positions of bridges follow the written chain, without caps; N, C: chain ends. Non-standard residues stand in square brackets, D forms with d. Residues, ends and D or L forms follow the SMILES beside them. *: point of attachment. X40 = CC[C@H](C)[C@@H](N[*:1])[C@@H](O)CC(=O)[*:2]; NMeY = CN[C@@H](Cc1ccc(O)cc1)C(=O)O; dNMeL = CN[C@H](CC(C)C)C(=O)O; Hiv = CC(C)[C@H](O)C(=O)O; Pyruvoyl = CC(=O)C(=O)*
TEST_READOUT: GI50

Some compounds with known GI50 results, for comparison:
Exam item: Item Cc1ccc2c(n1)NC(=O)C(Cc1ccccc1)(N=[N+]=[N-])C2=O (configuration not stated) : provide GI50
Marked response: > 100 µM (inactive)

Exam item: Item "C=C(C)[C@@H]1C[C@H]2O[C@](O)(C(=C)CC(=O)/C=C(/C)C[C@@H]3OC(=O)[C@]24O[C@@H]34)[C@H]1O" : provide GI50
Marked response: > 100 µM (inactive)

Exam item: Item "O=c1c(Cc2ccc(Cl)cc2)nnc2sc(-c3ccc(-c4ccc(F)c(Cl)c4)o3)nn12" : provide GI50
Marked response: 95.3 µM (inactive)

Exam item: Item "Cc1cc2c(cc1Cl)SC(NNc1cnc3ccccc3n1)=NS2(=O)=O" : provide GI50
Marked response: 90.2 µM (inactive)

Exam item: Item "CCOC(=O)c1sc2[n+](c1C)C(=O)/C(=C/c1ccc([N+](=O)[O-])cc1)S2" : provide GI50
Marked response: 27.7 µM (inactive)

Exam item: Item CC[C@H](C)[C@H]1NC(=O)[C@@H](NC(=O)[C@@H](CC(C)C)N(C)C(=O)[C@@H]2CCCN2C(=O)C(C)=O)[C@@H](C)OC(=O)[C@H](Cc2ccc(OC)cc2)N(C)C(=O)[C@@H]2CCCN2C(=O)[C@H](CC(C)C)NC(=O)[C@H](C(C)C)OC(=O)C[C@@H]1O (Pyruvoyl-P[dNMeL]T[X40][Hiv]LP[NMeY](Me); ester 3-C) : provide GI50
Marked response: 0.00467 µM (active)

Next, consider the following compound.
Exam item: Item C[N+](C)(C)c1ncnc2c1ncn2C1CCCO1 (configuration not stated) : provide GI50
Marked response: > 100 µM (inactive)
